PROTOCOL_NOTES: Solubility of BETi1 in water (HPLC) and in solvents (visual observation)
Format: physicochemical
CONDITION_LABEL: water; as stated in the dog study; read-out: water solubility limit
ASSAY_METRIC: solubility at 5 h (µg/mL)
Number only, in µg/mL; omit the unit.

State the recorded solubility at 5 h for this entry: `Cn1cc(-c2cccc(O)c2Oc2ccccc2)c2cc[nH]c2c1=O` 50

* * *

System: anti collagen antibodies induced arthritis (ACAIA)
PROTOCOL_NOTES: Anti collagen antibodies induced arthritis (ACAIA) in mice, intra-articular treatment: paw thickness, arthritis clinical score, body weight;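 further: mouse arthritis induced by IV anti-collagen mAb on day 0 plus IP LPS on day 4, with body weight, caliper paw thickness and 0-4 paw score tracked against a day 0 baseline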
CONDITION_LABEL: BETi1 0.1 mg/kg IA (Group 4); Av
ASSAY_METRIC: Weight per day, Day 4 (g)
Number only, in g; omit the unit.

State the recorded Weight per day, Day 4 for this entry: `Cn1cc(-c2cccc(O)c2Oc2ccccc2)c2cc[nH]c2c1=O` 20.3

* * *

PROTOCOL_NOTES: Toxicokinetics in dogs after intra-articular injection: plasma concentrations
Format: in vivo, Beagle dogs
CONDITION_LABEL: both sexes, Beagle, plasma, other: intra-articular injection, 150 mg/animal; dog, intra-articular, 150 mg; read-out: plasma level at four weeks post-treatment
ASSAY_METRIC: concentration at 4 weeks (nM)
Number only, in nM; omit the unit.

State the recorded concentration at 4 weeks for this entry: Cn1cc(-c2cccc(O)c2Oc2ccccc2)c2cc[nH]c2c1=O [BETi1] 5

* * *

PROTOCOL_NOTES: Toxicokinetics in dogs after intra-articular injection: plasma concentrations
Format: in vivo, Beagle dogs
CONDITION_LABEL: both sexes, Beagle, dog, plasma, other: intra-articular injection, 75 mg/animal; 75 mg intra-articular; 8 h; read-out: Plasma concentration of BETi1
ASSAY_METRIC: concentration at 8 h (ng/mL)
Number only, in ng/mL; omit the unit.

State the recorded concentration at 8 h for this entry: Cn1cc(-c2cccc(O)c2Oc2ccccc2)c2cc[nH]c2c1=O [BETi1] 38.1

* * *

PROTOCOL_NOTES: Toxicokinetics in dogs after intra-articular injection: plasma concentrations
Assay type: in vivo, Beagle dogs
CONDITION_LABEL: both sexes, Beagle, dog, plasma, other: intra-articular injection, 75 mg/animal; 75 mg intra-articular; 504 h; read-out: Plasma concentration of BETi1
ASSAY_METRIC: concentration at 504 h (ng/mL)
Number only, in ng/mL; omit the unit.

State the recorded concentration at 504 h for this entry: `Cn1cc(-c2cccc(O)c2Oc2ccccc2)c2cc[nH]c2c1=O` 0.835

* * *

PROTOCOL_NOTES: Toxicokinetics in dogs after intra-articular injection: plasma concentrations
Format: in vivo, Beagle dogs
CONDITION_LABEL: Beagle, dog, plasma; 7.5 mg/animal; Male; Study Day 1; read-out: Plasma Cmax
ASSAY_METRIC: Cmax (µg/mL)
Number only, in µg/mL; omit the unit.

State the recorded Cmax for this entry: `Cn1cc(-c2cccc(O)c2Oc2ccccc2)c2cc[nH]c2c1=O` 0.0321

* * *

PROTOCOL_NOTES: Toxicokinetics in dogs after intra-articular injection: plasma concentrations
Type: in vivo, Beagle dogs
CONDITION_LABEL: both sexes, Beagle, dog, plasma, other: intra-articular injection, 7.5 mg/animal; 7.5 mg intra-articular; 336 h; read-out: Plasma concentration of BETi1
ASSAY_METRIC: concentration at 336 h (ng/mL)
Number only, in ng/mL; omit the unit.

State the recorded concentration at 336 h for this entry: Cn1cc(-c2cccc(O)c2Oc2ccccc2)c2cc[nH]c2c1=O [BETi1] 0
